TESTED TARGET: T1, monkey GPC3-His protein (monkey)
T1 construct: Bought recombinant protein; also called monkey GPC3 protein
EXPERIMENT: SPR, antibody captured on Protein A chip, monkey GPC3-His analyte;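 note: run at 25 °C with 240 s association and up to 600 s dissociation, double-referenced, kinetics fitted to a 1:1 Langmuir binding model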
I'd appreciate it if you could supply Kd values for the items below.
Return type: number; implicit unit nM.

Name the reported Kd value associated with the binder F1.62.9 (antibody, human IgG1, kappa, V domains shown, Human-murine chimeric antibody) VH: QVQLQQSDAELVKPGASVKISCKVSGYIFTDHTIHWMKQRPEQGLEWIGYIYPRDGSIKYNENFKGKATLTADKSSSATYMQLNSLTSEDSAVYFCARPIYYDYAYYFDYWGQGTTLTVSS VL: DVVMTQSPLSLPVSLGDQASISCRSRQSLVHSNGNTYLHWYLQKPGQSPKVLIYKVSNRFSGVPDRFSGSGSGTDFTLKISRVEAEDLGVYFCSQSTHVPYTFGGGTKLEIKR
44

Given F1.2.14 (antibody, human IgG1, kappa, V domains shown, Human-murine chimeric antibody) VH: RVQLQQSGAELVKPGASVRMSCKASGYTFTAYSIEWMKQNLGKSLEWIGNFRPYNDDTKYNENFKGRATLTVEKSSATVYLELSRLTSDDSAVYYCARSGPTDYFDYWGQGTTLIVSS VL: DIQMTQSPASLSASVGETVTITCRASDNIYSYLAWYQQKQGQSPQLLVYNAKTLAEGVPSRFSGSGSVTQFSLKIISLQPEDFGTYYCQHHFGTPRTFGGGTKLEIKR , state its recorded Kd.
1.25

What measured Kd goes with F4.18.4 (antibody, human IgG1, kappa, V domains shown, Human-murine chimeric antibody) VH: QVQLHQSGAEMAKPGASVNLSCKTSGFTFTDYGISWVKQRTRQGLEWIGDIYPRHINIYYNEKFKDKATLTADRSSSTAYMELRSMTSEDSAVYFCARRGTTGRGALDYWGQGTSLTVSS VL: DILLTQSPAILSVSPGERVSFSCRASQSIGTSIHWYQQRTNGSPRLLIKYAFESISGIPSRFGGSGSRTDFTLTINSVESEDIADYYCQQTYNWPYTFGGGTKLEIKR ?
4.65

So what does the record say about Kd for F1.110.24 (antibody, human IgG1, kappa, V domains shown, Human-murine chimeric antibody) VH: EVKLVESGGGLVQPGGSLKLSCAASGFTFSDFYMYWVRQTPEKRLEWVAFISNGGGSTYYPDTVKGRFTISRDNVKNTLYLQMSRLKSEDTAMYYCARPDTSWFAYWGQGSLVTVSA VL: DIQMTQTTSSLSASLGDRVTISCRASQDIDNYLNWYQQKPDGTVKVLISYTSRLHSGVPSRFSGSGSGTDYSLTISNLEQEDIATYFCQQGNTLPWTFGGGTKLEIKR ?
1.38

Query: Kd; subject: F2.55.11 (antibody, human IgG1, kappa, V domains shown, Human-murine chimeric antibody) VH: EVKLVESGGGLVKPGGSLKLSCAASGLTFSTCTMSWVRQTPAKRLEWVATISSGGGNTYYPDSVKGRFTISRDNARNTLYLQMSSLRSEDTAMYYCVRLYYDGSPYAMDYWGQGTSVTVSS VL: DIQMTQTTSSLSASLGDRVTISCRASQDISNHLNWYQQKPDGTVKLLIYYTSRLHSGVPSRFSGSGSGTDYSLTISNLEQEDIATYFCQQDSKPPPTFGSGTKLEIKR
5.24

This collection of values is drawn from patent US20260116991A1.
